TGI values, listed per item
# Test system: M19-MEL melanoma
# ASSAY_EXPLANATION: NCI tumour cell line growth inhibition, 48 h
MEASURED_ENDPOINT: TGI

compound=Cn1cnnc1Sc1c([N+](=O)[O-])nc(-c2ccc([N+](=O)[O-])cc2)n1C measured_endpoint=TGI val="32.3 µM"
compound=O=C1N=C2N=C(c3ccc(Cl)cc3)N(c3ccc(Cl)cc3)N2Sc2ccccc21 measured_endpoint=TGI val="> 100 µM"
compound=COc1ccccc1/C=C(\NC(=O)c1ccccc1)c1nc2ccccc2[nH]1 measured_endpoint=TGI val="> 100 µM"
compound="COc1c2c(c(O)c3c4c(c(C)cc13)C1OC3(C(OC)OC5CC(C)(O)C(OC6CC(C)(O)C(O)C(C)O6)C(C)O5)OC1C(OC)(O4)C31CO1)C(=O)C(O)CC2OC1CC(C)(O)C(OC(C)=O)C(C)O1 (centres undefined)" measured_endpoint=TGI val="< 0.01 µM"
compound=O=c1cc(-c2ccccc2)oc2cc(OCCCCCCCCCCOc3ccc4c(=O)cc(-c5ccccc5)oc4c3)ccc12 measured_endpoint=TGI val="> 100 µM"
compound=COC(OC)c1cccnc1C measured_endpoint=TGI val="> 100 µM"
compound="O=C(O)C12C=CC(C1)c1ccccc12 (centres undefined)" measured_endpoint=TGI val="> 100 µM"
compound=CCOC(=N)CC(=O)Nc1ccccc1CC measured_endpoint=TGI val="> 100 µM"
compound=CCCCn1c(-c2ccccc2)cs/c1=N\NC(=O)Cn1c(C)nc2ccccc21 measured_endpoint=TGI val="> 100 µM"

----------
# System: NCI-H226 lung
# ASSAY_EXPLANATION: NCI tumour cell line growth inhibition, 48 h
MEASURED_ENDPOINT: TGI (µM)

compound=BrCc1ccc2ccc3ccc(CBr)nc3c2n1 uom=µM result_qualifier== val=15
compound=C(=Nc1ccc(-c2nc3ccccc3s2)cc1)c1cccs1 uom=µM result_qualifier=> val=100
compound="CC(C)(C)N=C1C(=O)C2(C)CCC1C2(C)C (stereo unspecified)" uom=µM result_qualifier=> val=100
compound=Cc1cc(C)c(-c2c(O)c(Br)c(-c3c(C)cc(C)c(Br)c3C)c(O)c2Br)c(C)c1Br uom=µM result_qualifier== val=9.52
compound=COc1ccc2c(c1)[n+](=O)c(/C=C/C(=O)c1cc(OC)c(OC)c(OC)c1)c(C)n2[O-] uom=µM result_qualifier=> val=100
compound=CCNc1ccc2c(c1)C(=O)N(OS(C)(=O)=O)C2=O uom=µM result_qualifier== val=97.1
compound=COC(=O)c1c(C(=O)O)c(-c2ccccc2)c(-c2ccccc2)c(-c2ccccc2)c1-c1ccccc1 uom=µM result_qualifier=> val=100
compound=CN(C)C(=S)/N=c1\ssc(=Nc2ccccc2)n1-c1ccccc1 uom=µM result_qualifier== val=26.7
compound=COc1cc(/C=C2\N=C(c3ccccc3)N(c3cc4cc(Sc5ccccc5)ccc4[nH]3)C2=O)ccc1O uom=µM result_qualifier=> val=50
compound=O=C(OCC1=CC(=O)c2ccccc2C1=O)c1ccccc1 uom=µM result_qualifier== val=31.5
compound=COc1ccc(N=c2nc3sc4cc(Cl)ccc4n3c(N)c2C#N)cc1 uom=µM result_qualifier== val=7.99

----------
# System: HS 578T breast
# ASSAY_EXPLANATION: NCI tumour cell line growth inhibition, 48 h; in the data active means GI50 below about 0.43 µM; inactive means the rest
Outcomes: 1 (active), 0 (inactive)

mol_smiles=COc1ccc(C(=O)Cn2c(C(=O)c3ccc(Cl)cc3)nc(-c3ccccc3)c2-c2ccccc2)cc1 label=0
mol_smiles=C/C(=N\NC(=S)N1CCCC1)c1ccccn1 label=1
mol_smiles=Cn1cc(-c2csc(-c3ccc(Cl)cc3)n2)c2cccnc21 label=0
mol_smiles=CCOC(=O)/C=C/c1ccc([N+](=O)[O-])o1 label=0
mol_smiles=Cc1cc(C)c(-c2c(O)c(Br)c(-c3c(C)cc(C)c(Br)c3C)c(O)c2Br)c(C)c1Br label=0
mol_smiles=CCCCS(=O)(=O)c1cc(Nc2ccc(O)c3c2C(=O)c2ccccc2C3=O)ccc1C label=0
mol_smiles=COC(=O)c1c(C(=O)O)c(-c2ccccc2)c(-c2ccccc2)c(-c2ccccc2)c1-c1ccccc1 label=0

----------
# System: SK-MEL-2 melanoma
# ASSAY_EXPLANATION: NCI tumour cell line growth inhibition, 48 h
Where a SMILES comes first, the peptide text is derived from it. Bridges are numbered along the chain shown (N, C = ends).
MEASURED_ENDPOINT: TGI (µM)

molecule=CC(=O)c1nc(-c2ccc(C[C@@H](CNC(=O)CN(C)C)NC(=O)c3ccc(OC(C)C)c(Cl)c3)cc2)cn1C result_qualifier== val=15.5
molecule=COc1ccc(-c2cn3ccnc3c(-c3ccc(Cl)cc3)n2)cc1 result_qualifier=> val=100
molecule=Cc1oc(N)c(S(=O)(=O)/C(C#N)=C/c2ccccc2[N+](=O)[O-])c1C result_qualifier=> val=100
molecule=CSCc1ncc(-c2ccc(C(F)(F)F)cc2)c(NC2CCCCCC2)n1 result_qualifier=> val=10
molecule=BrCc1ccc2ccc3ccc(CBr)nc3c2n1 result_qualifier== val=15
molecule="COC(=O)c1ccc(C)cc1C1CN=NC12Cc1cccc(C)c1C2=O (stereo not given)" result_qualifier== val=63.8
molecule="COC(=O)C1CCC(=O)NCCCCC(NC(=O)C(N)CC(=O)O)C(=O)N1 (stereo not drawn) (H-Asp-Lys-Glu-OMe; lactam 2-3; configuration not given here)" result_qualifier=> val=100
molecule=O=C1OC2(CCCCC2)C(Oc2ccc(Cl)cc2)=C1F result_qualifier== val=61.8
molecule=COC(=O)CCCc1nc2ccccc2nc1N=Nc1ccccc1 result_qualifier=> val=100
molecule=Cc1cccc(NC(=S)Nc2cccc(Cl)c2)n1 result_qualifier=> val=100

----------
# Test system: SK-MEL-2 melanoma
# ASSAY_EXPLANATION: NCI tumour cell line growth inhibition, 48 h; in the data active = GI50 below about 0.43 µM; inactive = the rest
Classes used: t = active, f = inactive

molecule=Cc1nc(C(=O)OCc2ccccc2)cc(OCc2ccccc2)c1C target_system="SK-MEL-2 melanoma" label=f
molecule=COC(=O)c1c(C(=O)O)c(-c2ccccc2)c(-c2ccccc2)c(-c2ccccc2)c1-c1ccccc1 target_system="SK-MEL-2 melanoma" label=f
molecule=CN(CCOc1ccc(NS(C)(=O)=O)cc1)CCc1ccc(NS(C)(=O)=O)cc1 target_system="SK-MEL-2 melanoma" label=f
molecule="COc1cc(C2CC(c3ccc(Cl)cc3)=NN2C(C)=O)ccc1Oc1ccnc2cc(Cl)ccc12 (centres undefined)" target_system="SK-MEL-2 melanoma" label=f
molecule=COc1ccc(C(=O)Cn2c(C(=O)c3ccc(Cl)cc3)nc(-c3ccccc3)c2-c2ccccc2)cc1 target_system="SK-MEL-2 melanoma" label=f
molecule=COc1cc(C=NCC(=O)CSC(c2ccccc2)c2ccccc2)ccc1O target_system="SK-MEL-2 melanoma" label=f
molecule=COc1ccc(CN2c3ccccc3Sc3ccccc32)cc1O target_system="SK-MEL-2 melanoma" label=t
molecule=CCCCC[C@H]1C/C=C2/C(=O)C=C[C@@H]2C/C=C\CCCC(=O)O1 target_system="SK-MEL-2 melanoma" label=t
molecule=C=C(CN1CCN(c2ccccn2)CC1)c1ccc(C(=O)Nc2ccccc2N)cc1 target_system="SK-MEL-2 melanoma" label=f
molecule=C/C(=N\NC(=S)N1CCCC1)c1ccccn1 target_system="SK-MEL-2 melanoma" label=t
molecule=CC(=O)c1nc(-c2ccc(C[C@@H](CNC(=O)CN(C)C)NC(=O)c3ccc(OC(C)C)c(Cl)c3)cc2)cn1C target_system="SK-MEL-2 melanoma" label=t
molecule="CN(Cc1cnc2nc(N)nc(N)c2n1)c1c(Cl)cc(C(=O)NC(CCC(=O)O)C(=O)O)cc1Cl (centres undefined)" target_system="SK-MEL-2 melanoma" label=f
molecule="COC1CCC(OC)C(c2nc3sccn3c2/C=N/N=C(N)N)C1 (centres undefined)" target_system="SK-MEL-2 melanoma" label=f
molecule=CCOC(=O)/C=C/c1ccc([N+](=O)[O-])o1 target_system="SK-MEL-2 melanoma" label=f

----------
# System: SF-295 CNS
# ASSAY_EXPLANATION: NCI tumour cell line growth inhibition, 48 h
# TGI per entry
MEASURED_ENDPOINT: TGI (µM)

molecule=O=C(O)CCN1C(=S)CSC1=S target_system="SF-295 CNS" uom=µM result_qualifier=> val=100
molecule=CCOC(=O)/C=C(/C(=O)OCC)n1cc(C)c(=O)n(Cc2cn(CCCCOC(C)=O)nn2)c1=O target_system="SF-295 CNS" uom=µM result_qualifier=> val=100
molecule="OC(Cc1cccc2ccccc12)CN1CCC(c2ccccc2)CC1 (stereo not given)" target_system="SF-295 CNS" uom=µM result_qualifier== val=27.9
molecule=O=C(Cc1nc2ccccc2s1)C(=O)Nc1cccc(C(F)(F)F)c1 target_system="SF-295 CNS" uom=µM result_qualifier=> val=100
molecule=O=Cc1c2c(cc3c1CC1(C3)Cc3cc4c(c(C=O)c3C1)CCC4)CCC2 target_system="SF-295 CNS" uom=µM result_qualifier=> val=100
molecule=O=S1(=O)CCC2=CC(C(F)(F)F)=CC(C(F)(F)F)=CN21 target_system="SF-295 CNS" uom=µM result_qualifier== val=4.8
molecule=C=C1C(=O)O[C@@H]2C[C@@H](C)[C@@H]3C=CC(=O)[C@@]3(C)[C@@H](OC(=O)CCCC(=O)O[C@H]3[C@@H]4C(=C)C(=O)O[C@@H]4C[C@@H](C)[C@@H]4C=CC(=O)[C@]43C)[C@H]12 target_system="SF-295 CNS" uom=µM result_qualifier== val=3.13
molecule=COc1ccc(-c2c(/C=N/OCC(=O)O)c3sc4ccccc4n3c2/C=N/OCC(=O)O)cc1 target_system="SF-295 CNS" uom=µM result_qualifier=> val=50
molecule=Cc1cc(C)c(-c2c(O)c(Br)c(-c3c(C)cc(C)c(Br)c3C)c(O)c2Br)c(C)c1Br target_system="SF-295 CNS" uom=µM result_qualifier== val=5.01
molecule=CCOc1ccc2cc(-c3nn(CC4CCN(C)CC4)c4ncnc(N)c34)ccc2c1 target_system="SF-295 CNS" uom=µM result_qualifier== val=29.2
molecule=Cc1cccc(C=NC23CC4CC(CC(C4)C2)C3)c1 target_system="SF-295 CNS" uom=µM result_qualifier=> val=100
molecule=CCOC(=O)c1cnc2n(c1=O)[C@H]1CCCC[C@@H]1N2 target_system="SF-295 CNS" uom=µM result_qualifier=> val=100
molecule=CC(=O)c1nc(-c2ccc(C[C@@H](CNC(=O)CN(C)C)NC(=O)c3ccc(OC(C)C)c(Cl)c3)cc2)cn1C target_system="SF-295 CNS" uom=µM result_qualifier== val=7.75
molecule=CCOC(=N)CC(=O)Nc1ccccc1CC target_system="SF-295 CNS" uom=µM result_qualifier=> val=100
molecule=CCNc1ccc2c(c1)C(=O)N(OS(C)(=O)=O)C2=O target_system="SF-295 CNS" uom=µM result_qualifier=> val=100
molecule="C#CC(O)/C=C/C(O)CCCC(O)CC#CC(O)C#CCCCCC(O)/C=C/CCCC(=O)CCCCCCCCCCCCCCCC(O)C(O)C#CC(=O)O (stereo not given)" target_system="SF-295 CNS" uom=µM result_qualifier=> val=25
molecule="Nc1ccccc1SC(/C=C/NNC1=NC(c2ccccc2)C(c2ccccc2)=NN1)c1ccccc1 (stereo not given)" target_system="SF-295 CNS" uom=µM result_qualifier== val=24.5
molecule=CC(=O)/C(=N\N=C(N)N)c1ccccc1 target_system="SF-295 CNS" uom=µM result_qualifier=> val=100
molecule=COc1ccc(/C=C(\C#N)c2cc(OC)c(OC)c(OC)c2)cc1 target_system="SF-295 CNS" uom=µM result_qualifier== val=50.7
molecule=CC(C)(C)OC(=O)NCCCCCCCCCCCCn1c2c(c3ccccc3c1=O)C(=O)c1ccccc1-2 target_system="SF-295 CNS" uom=µM result_qualifier== val=53
